I'd be grateful if you could share measured glycan array binding signal (z-score) for these entries.
# test-target: Fuc(a1-2)Gal(b1-4)GlcNAc(b1-3)Gal(b1-4)GlcNAc(b1-2)Man(a1-3)[Fuc(a1-2)Gal(b1-4)GlcNAc(b1-3)Gal(b1-4)GlcNAc(b1-2)Man(a1-6)]Man(b1-4)GlcNAc(b1-4)GlcNAc
# procedure-text: glycan array binding signal (z-score within array); higher = stronger binding
# run-conditions: glycan notation: IUPAC condensed, linker removed
The entries come from a sample that favours the strongest signals as a whole.
Answer field: number only, no words.

Given RBMC2 (Vibrio cholerae) (protein) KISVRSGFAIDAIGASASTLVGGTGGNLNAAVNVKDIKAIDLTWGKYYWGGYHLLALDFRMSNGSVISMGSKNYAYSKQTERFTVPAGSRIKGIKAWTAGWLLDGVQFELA , state its recorded glycan array binding signal (z-score).
3.69

Given LecB PA7 (Pseudomonas aeruginosa) (protein) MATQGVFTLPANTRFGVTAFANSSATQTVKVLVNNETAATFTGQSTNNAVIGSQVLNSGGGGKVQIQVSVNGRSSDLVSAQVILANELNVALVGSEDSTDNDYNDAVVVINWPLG , state its recorded glycan array binding signal (z-score).
10.1

Given FliC (Clostridium difficile) (protein) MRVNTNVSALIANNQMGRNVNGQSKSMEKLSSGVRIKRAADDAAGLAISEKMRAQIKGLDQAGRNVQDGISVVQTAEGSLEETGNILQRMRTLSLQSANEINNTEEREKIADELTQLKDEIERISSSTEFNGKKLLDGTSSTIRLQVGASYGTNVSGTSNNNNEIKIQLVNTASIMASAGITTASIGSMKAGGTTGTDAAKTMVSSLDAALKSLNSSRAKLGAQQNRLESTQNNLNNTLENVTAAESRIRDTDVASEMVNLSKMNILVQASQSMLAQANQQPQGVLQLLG , state its recorded glycan array binding signal (z-score).
0.257
